Hi there, I'd appreciate the recorded Change for every entry that follows.
biological target: Adenosine receptor A1 (Homo sapiens); experiment: Percent change in cAMP content of CHO (Chinese hamster ovary) cells expressing human Adenosine A1 receptor at 1 uM; format: functional, cell-based
Numbers only, in %.

Here is how some compounds turned out for Change.
COc1ccc(C2SCc3c(sc(N)c3C(=O)c3cccc4ccccc34)S2)cc1 (stereo not given); 4
Nc1sc2c(c1C(=O)c1ccc3ccccc3c1)CCN(Cc1ccc(F)cc1)C2; -2
COc1ccc(CN2CCc3c(sc(N)c3C(=O)c3ccc4ccccc4c3)C2)c(OC)c1OC; -10
Nc1sc2c(c1C(=O)c1ccc(Cl)c3ccccc13)CCC2; -27

Next compound, Change to be filled in.
Record request: Change value, item `Cc1ccc(C(=O)c2c(N)sc3c2CCCC3)c2ccccc12`
-21

---

target: Adenosine receptor A1 (Homo sapiens); assay: Percent change in cAMP content of CHO (Chinese hamster ovary) cells expressing human Adenosine A1 receptor at 0.1 uM; type: functional, cell-based
Can you tell me Change for the items I'm about to list?
Answer format: value, then unit.

# count of solved cases: 7
Cc1cc(C(=O)c2c(N)sc3c2CCC3)cc2ccc(Cl)cc12; -14%
Nc1sc2c(c1C(=O)c1ccc(Cl)c3ccccc13)CCC2; 15%
Cc1sc(N)c(C(=O)c2ccc3c(c2)Cc2ccccc2-3)c1C; -17%
Nc1sc2c(c1C(=O)c1ccc3ccccc3c1)CCC2; -14%
COc1ccc(C(=O)c2c(N)sc3c2CCCC3)c2ccccc12; 5%
Nc1sc2c(c1C(=O)c1ccc(I)c3ccccc13)CCC2; -8%
Nc1sc2c(c1C(=O)c1ccc3ccccc3c1)CCN(Cc1ccccc1F)C2; -3%

--- query ---
Consider the compound shown here: `Cc1cc(C(=O)c2c(N)sc3c2CCC3)cc2ccccc12` What is its recorded Change?
-7%

---

target: Adenosine receptor A1 (Homo sapiens) (UniProt P30542); experiment: Percent change in cAMP content of CHO (Chinese hamster ovary) cells expressing human Adenosine A1 receptor at 1 uM; format: functional, cell-based
Sequence (P30542 whole entry): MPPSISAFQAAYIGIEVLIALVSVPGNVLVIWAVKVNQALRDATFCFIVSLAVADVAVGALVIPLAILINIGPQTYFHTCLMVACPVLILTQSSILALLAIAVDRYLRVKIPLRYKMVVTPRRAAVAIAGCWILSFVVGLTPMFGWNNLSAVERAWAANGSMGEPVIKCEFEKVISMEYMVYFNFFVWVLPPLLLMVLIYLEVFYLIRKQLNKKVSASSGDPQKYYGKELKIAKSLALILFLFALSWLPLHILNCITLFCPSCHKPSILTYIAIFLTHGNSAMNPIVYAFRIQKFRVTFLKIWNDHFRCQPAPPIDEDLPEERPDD
Field 'label' (enum: fulfilled / not fulfilled). Set to fulfilled when Change is strictly under -20%; else not fulfilled.

These recorded examples may help you get a feel for the data.
Cc1sc(N)c(C(=O)c2cc(C)c3ccccc3c2)c1C; not fulfilled
COc1ccc(C(=O)c2c(N)sc(C)c2C)c2ccccc12; not fulfilled
Cc1cc(C(=O)c2c(N)sc3c2CCC3)cc2ccc(Cl)cc12; not fulfilled
Nc1sc2c(c1C(=O)c1ccc3ccccc3c1)CCN(Cc1ccc([N+](=O)[O-])cc1)C2; not fulfilled

Is the reported Change for Nc1sc2c(c1C(=O)c1ccc3ccccc3c1)CCC(c1ccccc1)C2 (stereo not drawn) strictly below -20%?
not fulfilled

# strict comparison: is reported Change < -20%? input = `Nc1sc2c(c1C(=O)c1ccc3ccccc3c1)CCCC2`
fulfilled

Hello, is Change of the following compound strictly smaller than -20%? `Nc1sc2c(c1C(=O)c1ccc3ccccc3c1)CCN(Cc1ccc(Cl)cc1)C2`
fulfilled

---

biological target: Adenosine receptor A1 (Homo sapiens) (UniProt P30542); test: Percent change in cAMP content of CHO (Chinese hamster ovary) cells expressing human Adenosine A1 receptor at 0.01 uM; type: functional, cell-based
attribute_measured: Change (%)
One number for each entry, in %.

Give measured Change for every item shown.
1. Cc1sc(N)c(C(=O)c2ccc3ccccc3c2)c1C
2. Nc1sc2c(c1C(=O)c1ccc(Br)c3ccccc13)CCC2
3. Cc1sc(N)c(C(=O)c2ccc3c(c2)Cc2ccccc2-3)c1C
4. Nc1sc2c(c1C(=O)c1ccc3ccccc3c1)CCN(Cc1cccnc1)C2
5. Cc1cc(C(=O)c2c(N)sc3c2CCC3)cc2ccccc12
6. Nc1sc2c(c1C(=O)c1cccc3ccccc13)CCCC2

1. -1
2. 3
3. -4
4. -8
5. -0
6. -11
